Test system: HL-1
Measurement Protocol: relative cell viability (CellTiter-Glo) vs DMSO control (% of DMSO control); higher = more viable cells
Setup Conditions: oxygen condition: hypoxia 48 h (1% O2) + reoxygenation 24 h; 5000 nM
Counter-ions that a name gives are not always drawn.
Metric Name: relative cell viability
Please respond with just the number, no unit label.

# Compound, Subject Of Test, Metric Name, Experimental Value
rows = [
    ("NC(=O)c1cccnc1 [Nicotinamide]", "HL-1", "relative cell viability", 104),
    ("COc1ccc(-c2nc3cc(C4=NNC(=O)CC4C)ccc3[nH]2)cc1 (stereo unspecified)", "HL-1", "relative cell viability", 109),
    ("CC[C@H](C)[C@H](N)C1=N[C@H](C(=O)N[C@@H](CC(C)C)C(=O)N[C@H](CCC(=O)[O-])C(=O)N[C@H](C(=O)N[C@H]2CCCCNC(=O)[C@H](CC(N)=O)NC(=O)[C@@H](CC(=O)[O-])NC(=O)[C@H](Cc3cnc[nH]3)NC(=O)[C@@H](Cc3ccccc3)NC(=O)[C@H]([C@@H](C)CC)NC(=O)[C@@H](CCCN)NC2=O)[C@@H](C)CC)CS1.[Zn+2]", "HL-1", "relative cell viability", 123),
]

For the compound shown here, CCN(CC)CCNC(C(=O)OCCC(C)C)c1ccccc1 (stereo unspecified) [Camylofin Chlorhydrate] , give the reported relative cell viability.
109

Lookup CCCCOc1cc(C(=O)NCCN(CC)CC)c2ccccc2n1 [Dibucaine HCL]
118
